Examples of substances with documented Thymus weight follow.
Experiment: Body and organ weights after subcutaneous administration in beagle dogs (Example 8)
Format: in vivo
Settings: 30 mg/kg subcutaneous days 1, 3, 5, 8, 15, 22, 29, end of study
Give the quantity in g, number only.

Take a look at these entries with their results.
**Query** For the substance shown here, 829994 (GGAGGCAGGGCCGCGA; 3-10-3 cEt gapmer, further chemistry not given here) [compound 829994] , give the reported Thymus weight.
**Result** 6.3

**Query** For the substance shown here, 798781 (CGTAAGATTCACAGCA; 3-10-3 cEt gapmer, further chemistry not given here) [compound 798781] , give the reported Thymus weight.
**Result** 6.0

**Query** For the substance shown here, 830025 (antisense TTTGTAAATCGAAAGC; 3-10-3 cEt gapmer, further chemistry not given here) [compound 830025] , give the reported Thymus weight.
**Result** 8.3

---
**Query** For the substance shown here, 830037 (antisense CTATTGGCTGATCTGG; 3-10-3 cEt gapmer, further chemistry not given here) [compound 830037] , give the reported Thymus weight.
**Result** 6.3

**Query** For the substance shown here, 790615 (CCAATGAGAATGCTTC; 3-10-3 cEt gapmer, further chemistry not given here) [compound 790615] , give the reported Thymus weight.
**Result** 9.9

**Query** For the substance shown here, 830121 (AGAATCAAGCCCTGGC; 3-10-3 cEt gapmer, further chemistry not given here) [compound 830121] , give the reported Thymus weight.
**Result** 2.8

* * *

Examples of substances with documented % Inhibition follow.
System: human SMAD7 mRNA
Test: Antisense inhibition of human SMAD7 mRNA expression in Hep3B cells by 5-10-5 MOE gapmers, single concentration, electroporation, RT-PCR (Example 1, Study 1 and 2)
Format: cell-based
Details: Study 2, electroporation with 15,000 nM antisense oligonucleotide, 5-10-5 MOE gapmers targeting SEQ ID NO: 1 and 2
Strand notation (5' to 3'): a small letter for the sugar, then the base; units joined by * are phosphorothioate-linked, units joined directly phosphodiester-linked; [ ] holds rarer units or linkages, { } end groups; capitals alone tell only the bases. e = 2'-O-(2-methoxyethyl) (MOE); [5mC] = 5-methylcytosine; d = 2'-deoxy (DNA)
Give the quantity in %, number only.

Take a look at these entries with their results.
**Query** For the substance shown here, 771839 (antisense e[5mC]*eA*e[5mC]*eA*eG*d[5mC]*dA*d[5mC]*d[5mC]*dG*dT*dT*dA*d[5mC]*dT*eG*eG*eA*e[5mC]*eA) [compound 771839] , give the reported % Inhibition.
**Result** 21

**Query** For the substance shown here, 771369 (antisense e[5mC]*eA*eA*eA*eA*dG*dG*d[5mC]*dT*dG*dA*d[5mC]*dT*d[5mC]*dG*e[5mC]*eG*eG*e[5mC]*e[5mC]) [compound 771369] , give the reported % Inhibition.
**Result** 22

**Query** For the substance shown here, 771386 (antisense e[5mC]*eT*eG*eG*eA*d[5mC]*dA*dG*dT*d[5mC]*dT*dG*d[5mC]*dT*dG*eT*eG*eG*eA*eT) [compound 771386] , give the reported % Inhibition.
**Result** 57

**Query** For the substance shown here, 771702 (antisense eA*eG*eG*eG*eT*dA*dT*dG*d[5mC]*dA*d[5mC]*dA*d[5mC]*dT*d[5mC]*eT*e[5mC]*e[5mC]*e[5mC]*eA) [compound 771702] , give the reported % Inhibition.
**Result** 24

Please find the next substance below.
**Query** For the substance shown here, 771887 (antisense e[5mC]*eA*eG*e[5mC]*e[5mC]*dA*d[5mC]*dT*dG*d[5mC]*dT*dG*dT*d[5mC]*dT*eG*eA*eG*eG*eA) [compound 771887] , give the reported % Inhibition.
**Result** 14

* * *

Tested on: human SMAD7 mRNA
Experiment: Dose-dependent inhibition of human SMAD7 mRNA expression in Hep3B cells (Example 3, Study 1 and 2)
Assay type: cell-based
Conditions: 20000.0 nM, electroporation, approximately 16 hours, Study 2
Strand notation (5' to 3'): a small letter for the sugar, then the base; units joined by * are phosphorothioate-linked, units joined directly phosphodiester-linked; [ ] holds rarer units or linkages, { } end groups; capitals alone tell only the bases. k = constrained ethyl (cEt); [5mC] = 5-methylcytosine; d = 2'-deoxy (DNA)
Lab note: compare % inhibition of SMAD7 mRNA expression against 80%. Equal or greater, write class 1. Smaller, write class 0.

**Query** Decide: % inhibition of SMAD7 mRNA expression of 799759 (antisense kA*k[5mC]*k[5mC]*dA*dT*dA*dT*d[5mC]*dA*d[5mC]*dT*d[5mC]*d[5mC]*kT*kT*k[5mC]) [compound 799759] >= 80%?
**Result** class 0

**Query** Decide: % inhibition of SMAD7 mRNA expression of 799143 (antisense kT*kG*kG*dG*dT*dT*dA*dT*dG*dA*d[5mC]*dG*dG*kA*k[5mC]*k[5mC]) [compound 799143] >= 80%?
**Result** class 1

**Query** Decide: % inhibition of SMAD7 mRNA expression of 799544 (kT*kT*k[5mC]*dA*dA*d[5mC]*dA*dA*dG*dT*dT*d[5mC]*d[5mC]*k[5mC]*kT*kA; antisense) [compound 799544] >= 80%?
**Result** class 0

**Query** Decide: % inhibition of SMAD7 mRNA expression of 799711 (antisense kG*kG*kT*d[5mC]*dA*dA*dA*d[5mC]*dT*dT*dG*dT*dG*kG*kT*kA) [compound 799711] >= 80%?
**Result** class 0

**Query** Decide: % inhibition of SMAD7 mRNA expression of 772578 (kG*kG*kT*dA*dT*d[5mC]*dT*dG*dG*dA*dG*dT*dA*kA*kG*kG; antisense) [compound 772578] >= 80%?
**Result** class 1

**Query** Decide: % inhibition of SMAD7 mRNA expression of 799365 (k[5mC]*kT*k[5mC]*d[5mC]*dG*dA*dG*dT*dT*dA*dT*d[5mC]*d[5mC]*k[5mC]*k[5mC]*kA; antisense) [compound 799365] >= 80%?
**Result** class 1

**Query** Decide: % inhibition of SMAD7 mRNA expression of 798823 (kA*k[5mC]*kA*dG*dT*dA*dG*dA*dG*d[5mC]*d[5mC]*dT*d[5mC]*k[5mC]*k[5mC]*k[5mC]; antisense) [compound 798823] >= 80%?
**Result** class 0

**Query** Decide: % inhibition of SMAD7 mRNA expression of 830207 (kA*kG*kG*dT*dG*dA*d[5mC]*dT*d[5mC]*dA*dT*d[5mC]*dA*kG*kG*k[5mC]; antisense) [compound 830207] >= 80%?
**Result** class 1

**Query** Decide: % inhibition of SMAD7 mRNA expression of 799509 (antisense kA*kG*kA*dA*dA*d[5mC]*dA*dG*dT*d[5mC]*dT*d[5mC]*d[5mC]*kA*k[5mC]*kA) [compound 799509] >= 80%?
**Result** class 1

**Query** Decide: % inhibition of SMAD7 mRNA expression of 798733 (antisense k[5mC]*kG*k[5mC]*dG*dG*d[5mC]*dT*dG*dG*d[5mC]*dG*dG*dG*kT*kG*kG) [compound 798733] >= 80%?
**Result** class 1

* * *

System: human SMAD7 mRNA
Assay: Antisense inhibition of human SMAD7 mRNA expression in Hep3B cells by 3-10-3 cEt gapmers, 10,000 nM, electroporation (Example 2)
Format: cell-based
Conditions: Hep3B cells, electroporation, 10,000 nM antisense oligonucleotide, approximately 24 hours, RTS5062, relative to untreated control cells
Strand notation (5' to 3'): a small letter for the sugar, then the base; units joined by * are phosphorothioate-linked, units joined directly phosphodiester-linked; [ ] holds rarer units or linkages, { } end groups; capitals alone tell only the bases. k = constrained ethyl (cEt); [5mC] = 5-methylcytosine; d = 2'-deoxy (DNA)
REPORTED_METRIC: % inhibition of SMAD7 mRNA expression (%)
Give the quantity in %, number only.

Take a look at these entries with their results.
**Query** Record 799720 (antisense kA*k[5mC]*kA*d[5mC]*dA*d[5mC]*dA*dG*d[5mC]*dA*dG*dA*dA*kG*kG*k[5mC]) [compound 799720] : what is its % inhibition of SMAD7 mRNA expression with human SMAD7 mRNA?
**Result** 40

**Query** Record 799557 (kA*kG*k[5mC]*d[5mC]*dA*dG*dT*dT*d[5mC]*dT*dT*dA*dG*kA*kA*kA; antisense) [compound 799557] : what is its % inhibition of SMAD7 mRNA expression with human SMAD7 mRNA?
**Result** 28

Please find the next substance below.
**Query** Record 799536 (kA*k[5mC]*k[5mC]*dG*dA*dT*dG*d[5mC]*dA*dT*d[5mC]*d[5mC]*dA*kA*k[5mC]*kT; antisense) [compound 799536] : what is its % inhibition of SMAD7 mRNA expression with human SMAD7 mRNA?
**Result** 50
